Molecular target: EGFR (Homo sapiens)
Sequence (P00533 25-1210, species assumed): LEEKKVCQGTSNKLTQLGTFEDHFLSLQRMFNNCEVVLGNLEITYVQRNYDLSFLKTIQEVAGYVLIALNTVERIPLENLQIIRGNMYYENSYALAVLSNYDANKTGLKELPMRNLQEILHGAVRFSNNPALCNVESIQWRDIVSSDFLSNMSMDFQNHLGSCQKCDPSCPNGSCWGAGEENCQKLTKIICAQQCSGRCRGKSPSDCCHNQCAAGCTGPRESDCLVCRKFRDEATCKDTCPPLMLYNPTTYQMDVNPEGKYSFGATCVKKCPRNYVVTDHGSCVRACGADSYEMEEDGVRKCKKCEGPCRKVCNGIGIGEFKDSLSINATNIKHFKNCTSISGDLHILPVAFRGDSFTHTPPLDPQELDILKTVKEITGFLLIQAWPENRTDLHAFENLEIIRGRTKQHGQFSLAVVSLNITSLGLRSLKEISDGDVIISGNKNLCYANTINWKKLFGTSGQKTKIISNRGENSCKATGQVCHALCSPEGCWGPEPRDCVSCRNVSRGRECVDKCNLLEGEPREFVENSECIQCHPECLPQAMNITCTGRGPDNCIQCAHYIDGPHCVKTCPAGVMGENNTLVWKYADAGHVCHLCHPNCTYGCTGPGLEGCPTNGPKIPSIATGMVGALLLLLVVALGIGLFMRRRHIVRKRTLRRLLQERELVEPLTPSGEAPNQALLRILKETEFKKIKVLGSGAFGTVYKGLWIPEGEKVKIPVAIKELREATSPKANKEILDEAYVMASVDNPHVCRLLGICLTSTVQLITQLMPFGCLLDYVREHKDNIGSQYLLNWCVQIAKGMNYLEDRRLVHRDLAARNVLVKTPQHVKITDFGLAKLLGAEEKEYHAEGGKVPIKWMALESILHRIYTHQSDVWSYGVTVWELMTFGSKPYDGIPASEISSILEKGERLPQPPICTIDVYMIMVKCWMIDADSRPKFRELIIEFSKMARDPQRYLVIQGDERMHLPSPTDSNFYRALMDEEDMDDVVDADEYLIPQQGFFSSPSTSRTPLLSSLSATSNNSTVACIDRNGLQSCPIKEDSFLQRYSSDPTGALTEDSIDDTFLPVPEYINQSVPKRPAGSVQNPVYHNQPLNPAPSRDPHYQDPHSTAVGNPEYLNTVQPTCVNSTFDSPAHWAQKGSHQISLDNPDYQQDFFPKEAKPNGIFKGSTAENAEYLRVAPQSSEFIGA
test readout: pIC50
Give bare numbers, as −log10 of the molar value.

Task item: Observed pIC50 on EGFR (Homo sapiens) for COc1cc(-c2nc(=O)c3c([nH]2)sc2ccc(C)cc23)ccc1OCC(=O)O , please.
Reply: 5.70

---

Target: FGFR1 kinase (Homo sapiens, UniProt P11362)
Sequence (P11362 478-767 limits assumed): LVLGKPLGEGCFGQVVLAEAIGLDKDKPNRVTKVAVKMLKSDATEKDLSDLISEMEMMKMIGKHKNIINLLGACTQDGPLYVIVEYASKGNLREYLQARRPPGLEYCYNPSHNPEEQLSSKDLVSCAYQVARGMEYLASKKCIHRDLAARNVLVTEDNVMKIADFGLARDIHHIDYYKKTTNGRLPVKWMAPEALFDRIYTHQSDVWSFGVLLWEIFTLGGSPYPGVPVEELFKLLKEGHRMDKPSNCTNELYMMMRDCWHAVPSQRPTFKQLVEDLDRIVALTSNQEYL
Experiment: ALPHAScreen assay, inhibition of FGFR1 kinase
Assay type: biochemical
Conditions: na = not active in the assay

compound: CCOc1cc(/C=C2\NC(=S)NC2=O)ccc1OCCCOc1cc(C)cc(C)c1
system name: FGFR1 kinase (Homo sapiens, UniProt P11362)
IC50 for inhibition of FGFR1 kinase: weak activity
//
compound: COCc1cc(/C=C2\NC(=S)NC2=O)ccc1OCCCOc1cc(C)cc(C)c1
system name: FGFR1 kinase (Homo sapiens, UniProt P11362)
IC50 for inhibition of FGFR1 kinase: weak activity
//
compound: COc1ccc(-c2nc(=O)c3c4c(sc3[nH]2)CC(C)CC4)cc1OC (centres unmarked)
system name: FGFR1 kinase (Homo sapiens, UniProt P11362)
IC50 for inhibition of FGFR1 kinase: do not inhibit
//
compound: COc1cccc(-c2nc(=O)c3c4c(sc3[nH]2)CC(C)CC4)c1 (centres unmarked)
system name: FGFR1 kinase (Homo sapiens, UniProt P11362)
IC50 for inhibition of FGFR1 kinase: do not inhibit
